assay-notes: Tissue half-life (t1/2) and Cmax in plasma, brain, kidney and liver after oral administration to CD-1 mice
Type: in vivo, mouse
run-conditions: male, mouse, plasma t1/2, 30 mg/kg oral gavage (PO), read-out: Half-Lives (h) Plasma (converted)
outcome-measure: half-life (h)

record-smiles	half-life / h
C[C@@H]1[C@@H](N=C(Nc2ccc3c(=O)n(CCc4ccc(Br)cc4F)c(-c4cnccn4)nc3c2)N2CCN[C@@H](C(F)F)C2)C[C@H]2C[C@@H]1C2(C)C	6.4

(1) C[C@@H]1[C@@H](N=C(Nc2ccc3c(=O)n(CCc4ccc(Cl)cc4)c(-c4c[nH]c5ccccc45)nc3c2)N2CC(=O)N[C@@H](C)C2)C[C@H]2C[C@@H]1C2(C)C
(2) C[C@@H]1[C@@H](N=C(Nc2ccc3c(=O)n(CCc4ccc(Br)cc4)c(-c4cnccn4)nc3c2)N2CCN[C@@H](C(F)F)C2)C[C@H]2C[C@@H]1C2(C)C
Problem: Field: lower recorded half-life (choose 1 or 2 ) Answer by stating the label of the chosen item.
Result: 2
(2: 2.6 h, 1: 7.7 h)

====

assay-notes: Tissue half-life (t1/2) and Cmax in plasma, brain, kidney and liver after oral administration to CD-1 mice
Assay type: in vivo, mouse
run-conditions: male, mouse, plasma t1/2, 30 mg/kg oral gavage (PO), read-out: Half-Lives (h) Plasma (converted)
outcome-measure: half-life (h)

record-smiles	units-symbol	assay-value
C[C@@H]1[C@@H](/N=C(/Nc2ccc3c(=O)n(CCc4ccc(Cl)cc4Cl)cnc3c2)N2CC(O)C2)C[C@@H]2C[C@H]1C2(C)C	h	18.9

(a) COc1ccc(CCn2c(-c3cccnc3)nc3cc(NC(=N[C@H]4C[C@H]5C[C@@H]([C@@H]4C)C5(C)C)N4CCN(CC#N)[C@@H](C)C4)ccc3c2=O)c(F)c1
(b) COc1ccc(CCn2c(-c3ccncc3)nc3cc(NC(=N[C@H]4C[C@H]5C[C@@H]([C@@H]4C)C5(C)C)N4CCN[C@@H](CF)C4)ccc3c2=O)c(F)c1
Problem: Parameter metric = half-life. Return the lower-valued option from a and b . Give the label under which the chosen entry appears.
Result: a
(a: 18 h, b: 26 h)
